// provenance: PubChem BioAssay AID1159580

assay: chemical genetic growth profiling, strain panel (AID 1159580);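 also: tested at 20 µM; growth read once vehicle control cultures reached saturation at 30 °C; 1 = growth at the plate median or of vehicle wells; lower values mean less growth of the strain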; conditions: S. cerevisiae deletion strains, growth OD, locus YER167W, strain BCK2
Screen size: about 5,500 compounds; about 2,000 (36%) were called active. Roughly 18% stayed inconclusive and do not appear here. Rule as the data show it: active = normalized growth mostly below about 0.91 (no sharp cut-off); inconclusive = no clear call, values can overlap the other calls; inactive = mostly above about 0.92. The list shows a part of the results.
Could you please pick one outcome from this set? active, inactive

Take a look at these entries with their results.
Compound	Label value
Nc1ccc(S(=O)(=O)Nc2ccnn2-c2ccccc2)cc1	inactive
C[C@@H]1CC[C@]2(C(=O)O)CC[C@]3(C)C(=CCC4[C@@]5(C)CC[C@H](O)C(C)(C)C5CC[C@]43C)C2[C@H]1C (stereo partly specified)	inactive
C[C@@H]1OC(O[C@H]2[C@H](OC(=O)[C@]34CCC(C)(C)CC3C3=CCC5[C@@]6(C)CC[C@H](OC7O[C@@H](C)[C@H](O[C@@H]8OC[C@@H](O)[C@H](O)[C@H]8O)[C@@H](O)[C@H]7O)C(C)(C)C6CC[C@@]5(C)[C@]3(C)CC4O)OC[C@H](O)[C@H]2O)[C@H](O)[C@H](O)[C@H]1O[C@@H]1O[C@H](CO)[C@@H](O)[C@H](O)[C@H]1O (stereo partly specified)	active

Query :: Query: recorded result category for CC(=O)NC(C(=O)O)C(C)(C)SN=O (stereo unspecified) in this test
Result :: inactive

Query :: Query: recorded result category for "COC1=C[C@@H]2[C@@H]3Cc4ccc(OC)c(O)c4[C@]2(CCN3C)CC1=O" in this test
Result :: inactive

Query :: Query: recorded result category for "Cc1cc(O)cc(=O)o1" in this test
Result :: inactive

====

assay: chemical genetic growth profiling, strain panel (AID 1159580); details: S. cerevisiae deletion strains, growth OD, locus YMR277W, strain FCP1
Screen size: about 5,500 compounds; about 2,000 (36%) were called active. Inconclusive results (about 18%) are left out. Rule as the data show it: active = normalized growth mostly below about 0.91 (no sharp cut-off); inconclusive = no clear call, values can overlap the other calls; inactive = mostly above about 0.92. The list shows a part of the results.
Could you please pick one outcome from this set? active, inactive

O=[N+]([O-])c1ccc(S(=O)(=O)c2ccccc2)nc1S(=O)(=O)c1ccccc1 active

Query :: Query: recorded result category for "COc1ccc2nc3ccccc3c(N)c2c1" in this test
Result :: active

Query :: Query: recorded result category for "CSc1n[nH]c(-c2cc(C(F)(F)F)cc(C(F)(F)F)c2)n1" in this test
Result :: inactive

Query :: Query: recorded result category for "S=C(Nc1ccc(Cl)cc1)SCc1c(Cl)cccc1Cl" in this test
Result :: inactive

Query :: Query: recorded result category for "Clc1cc(Cl)cc(-c2nc(SCc3ccc(Cl)cc3Cl)n[nH]2)c1" in this test
Result :: inactive

Query :: Query: recorded result category for "O=C(NCCc1ccncc1)c1ccc(Cl)c(Cl)c1" in this test
Result :: inactive

====

Quick list: normalized growth per entry.
assay: chemical genetic growth profiling, strain panel (AID 1159580); conditions: S. cerevisiae deletion strains, growth OD, locus YJL129C, strain trk1, hits give low values
Hit rate of the full screen: of about 5,500 compounds, about 2,000 (36%) were called active. Inconclusive results (about 18%) are left out. Some of the results follow.
Answer using only a numeral; do not append any unit.

Past entries and their recorded results:
Compound	normalized growth
CC1(C)CC[C@]2(C(=O)O)CC[C@]3(C)C(=CCC4[C@@]5(C)CC[C@H](O)[C@@](C)(CO)C5CC[C@]43C)C2C1 (stereo partly drawn)	1.02
C/C=C(/C)C(=O)O[C@@H]1[C@H](OC(C)=O)[C@@]2(CO)C(CC1(C)C)C1=CCC3[C@@]4(C)CC[C@H](O[C@@H]5O[C@H](C(=O)O)[C@@H](O[C@@H]6O[C@H](CO)[C@@H](O)[C@H](O)[C@H]6O)[C@H](O)[C@H]5O[C@@H]5O[C@H](CO)[C@@H](O)[C@H](O)[C@H]5O)[C@](C)(CO)C4CC[C@@]3(C)[C@]1(C)C[C@H]2O (stereo partly drawn)	0.984
CC(=O)O[C@H]1CC[C@@]2(C)C(CC[C@]3(C)C2CC=C2C4CC(C)(C)CC[C@]4(C)CC[C@]23C)C1(C)C (stereo partly drawn)	0.993

Query :: For the compound shown here, "CCCOc1ccccc1-c1nc2n[nH]nc2c(=O)[nH]1" , give the reported normalized growth.
Result :: 0.992

Query :: For the compound shown here, "COc1cc(C(=O)O[C@H]2CC[C@@]3(C)[C@@H]4CC[C@H]5[C@]6(O)C[C@H](O)[C@@]7(O)[C@@H](CN8C[C@@H](C)CC[C@H]8[C@@]7(C)O)[C@]6(O)C[C@@]53O[C@]24O)cc(OC)c1OC" , give the reported normalized growth.
Result :: 1.01

Query :: For the compound shown here, CC(=O)O[C@@H]1CC[C@@]2(C)C(CC[C@]3(C)C2CC=C2C4CC(C)(C)CC[C@]4(C(=O)O)CC[C@]23C)C1(C)C (stereo partly drawn) , give the reported normalized growth.
Result :: 1.02

Query :: For the compound shown here, C[C@@H]1OC(O[C@H]2C(O[C@H]3CC[C@@]4(C)C(CC[C@]5(C)C4CC=C4C6CC(C)(C)CC[C@]6(C(=O)O)CC[C@]45C)[C@]3(C)CO)OC[C@H](O)[C@@H]2O)[C@H](O)[C@H](O)[C@H]1O (stereo partly drawn) , give the reported normalized growth.
Result :: 0.0793

Query :: For the compound shown here, "COC1=C[C@@H]2[C@@H]3Cc4ccc(OC)c(O)c4[C@]2(CCN3C)CC1=O" , give the reported normalized growth.
Result :: 0.977

====

Quick list: normalized growth per entry.
assay: chemical genetic growth profiling, strain panel (AID 1159580); conditions: S. cerevisiae deletion strains, growth OD, locus YOR290C, strain snf2, hits give low values
The whole screen tested about 5,500 compounds, of which about 2,000 (36%) were called active. Another 18% or so got no clear call; they are omitted. This is one part of the list.
Answer using only a numeral; do not append any unit.

Past entries and their recorded results:
Compound	normalized growth
COC1=C[C@@H]2[C@@H]3Cc4ccc(OC)c(O)c4[C@]2(CCN3C)CC1=O	0.987
CCCOc1ccccc1-c1nc2n[nH]nc2c(=O)[nH]1	0.992
N=C(N)SCCN	0.956
CC(CC(=O)C(O)C(C)(C)O)C1C(=O)CC2(C)C3=CCC4C(C)(C)C(OC5OCC(O)C(O)C5O)CCC45CC35C(O)CC12C (stereo not drawn)	1.02
O=C(O)CC(O)(CC(=O)O)C(=O)O	0.99
Cc1cc(-n2c(=O)[nH]c(=O)n(C)c2=O)ccc1Oc1ccc(SC(F)(F)F)cc1	0.763
CC(C)=CCCC1(C)C=Cc2c(O)c3c(c(CC=C(C)C)c2O1)OC12C(=CC4CC1C(C)(C)OC2(C/C=C(/C)C(=O)O)C4=O)C3=O (stereo not drawn)	0.836

Next:
Query :: For the compound shown here, "COc1cc(N)c(Cl)cc1C(=O)NC1CCN(Cc2ccccc2)CC1" , give the reported normalized growth.
Result :: 0.984

====

experiment: chemical genetic growth profiling, strain panel (AID 1159580);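 also: tested at 20 µM; growth read once vehicle control cultures reached saturation at 30 °C; 1 = growth at the plate median or of vehicle wells; lower values mean less growth of the strain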; details: S. cerevisiae deletion strains, growth OD, locus YLR262C, strain YPT6 (second series), hits give low values
About 2,000 (36%) of roughly 5,500 compounds were called active. About 18% were inconclusive and are not listed. The list shows a part of the results.
Reported endpoint: normalized growth
Answer using only a numeral; do not append any unit.

Past entries and their recorded results:
N=C(N)c1ccc(OCCCCCOc2ccc(C(=N)N)cc2)cc1 0.988
Cc1ccc(-c2cc(C(F)(F)F)nn2-c2ccc(S(N)(=O)=O)cc2)cc1 1.01

Query :: For the molecule shown here, "NCCC(=O)N[C@@H](Cc1cnc[nH]1)C(=O)O" , give the reported normalized growth.
Result :: 1.02

====

assay: chemical genetic growth profiling, strain panel (AID 1159580);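 also: tested at 20 µM; growth read once vehicle control cultures reached saturation at 30 °C; 1 = growth at the plate median or of vehicle wells; lower values mean less growth of the strain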; conditions: S. cerevisiae deletion strains, growth OD, locus YNL067W, strain RPL9B
The campaign covered roughly 5,500 compounds. About 2,000 (36%) were called active. Another 18% or so got no clear call; they are omitted. Cut-off read from the data, not from the text of the source: active = normalized growth mostly below about 0.91 (no sharp cut-off); inconclusive = no clear call, values can overlap the other calls; inactive = mostly above about 0.92. Some of the results follow.
Could you please pick one outcome from this set? active, inactive

Take a look at these entries with their results.
Molecule	Label value
CCOC(=O)OC(C)OC(=O)C1N2C(=O)C(NC(=O)[C@H](N)c3ccccc3)C2SC1(C)C (stereo not given in full)	inactive
Fc1ccc(C(c2ccccc2)(c2ccccc2F)n2ccnc2)cc1 (stereo not given)	active
COc1ccc2c(c1)c(CC(=O)OCC(=O)O)c(C)n2C(=O)c1ccc(Cl)cc1	inactive
CNCc1ccccc1	inactive

Query :: Query: recorded result category for "Cc1cc(O)c2c(c1)Cc1cccc(O)c1C2=O" in this test
Result :: inactive

====

experiment: chemical genetic growth profiling, strain panel (AID 1159580);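 also: tested at 20 µM; growth read once vehicle control cultures reached saturation at 30 °C; 1 = growth at the plate median or of vehicle wells; lower values mean less growth of the strain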; settings: S. cerevisiae deletion strains, growth OD, locus YMR078C, strain ctf18, hits give low values
Screen size: about 5,500 compounds; about 2,000 (36%) were called active. Not shown: some 18% with an inconclusive outcome. The list shows a part of the results.
Quick list: normalized growth per entry.
Answer using only a numeral; do not append any unit.

Past entries and their recorded results:
Compound	Reported value
Nc1c2c(nc3ccccc13)CCCC2O (stereo not drawn)	0.993
CCC(C)C(NC)C(=O)O (stereo not drawn)	0.985
Nc1c2c(nc3ccccc13)CCCC2	1.02
C/C=C(/C)C(=O)O[C@@H]1[C@H](OC(C)=O)[C@@]2(CO)C(CC1(C)C)C1=CCC3[C@@]4(C)CC[C@H](O[C@@H]5O[C@H](C(=O)O)[C@@H](O[C@@H]6O[C@H](CO)[C@@H](O)[C@H](O)[C@H]6O)[C@H](O)[C@H]5O[C@@H]5O[C@H](CO)[C@@H](O)[C@H](O)[C@H]5O)[C@](C)(CO)C4CC[C@@]3(C)[C@]1(C)C[C@H]2O (stereo partly drawn)	1.02
Nc1ccccc1C(=O)CC(N)C(=O)O (stereo not drawn)	0.98

Query :: For the compound shown here, "O=C1c2c(O)cccc2Cc2cccc(O)c21" , give the reported normalized growth.
Result :: 0.999

Query :: For the compound shown here, "COc1ccc2[nH]cc(CCN)c2c1" , give the reported normalized growth.
Result :: 0.99

Query :: For the compound shown here, "COc1ccc2c3c([nH]c2c1)C(C)=NCC3" , give the reported normalized growth.
Result :: 0.996
